Test system: Zluc cells
PROTOCOL_DESCRIPTION: Cytotoxicity evaluation, CellTiter-Blue Cell Viability Assay
Format: cell-based
TEST_CONDITIONS: read-out: HCV Replicon CC50
MEASURED_PROPERTY: CC50

{"COMPOUND": "CCOc1nc(N)nc2c1ncn2[C@@H]1O[C@H](COP(=O)(NCc2ccccc2)OCCSC(=O)C(C)(C)C(=O)OC(C)C)[C@@H](O)[C@@]1(C)F (single isomer, unassigned) [Compound 105 Diastereomer 2]", "CC50": "> 50 µM"}

QUERY: Supply recorded CC50 for CCCCCC(=O)OCC(C)(C)C(=O)SCCOP(=O)(NCc1ccccc1)OC[C@H]1O[C@@H](n2cnc3c(OCC)nc(N)nc32)[C@](C)(F)[C@@H]1O (single isomer, unassigned) [Compound 103 Diastereomer 2] here.
RESULT: > 50 µM
